# testedTarget: T1, human claudin 6 (CLDN6) (human, UniProt P56747 1-220)
# T1 construct: also called human CLDN6; hCLDN6
# T1 sequence: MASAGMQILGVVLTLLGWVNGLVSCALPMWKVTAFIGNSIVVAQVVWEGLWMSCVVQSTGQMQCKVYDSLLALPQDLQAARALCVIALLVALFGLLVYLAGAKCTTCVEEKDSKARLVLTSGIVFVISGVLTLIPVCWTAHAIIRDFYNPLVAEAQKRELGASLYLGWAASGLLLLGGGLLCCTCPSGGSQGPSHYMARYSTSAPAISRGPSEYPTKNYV
# experimentSummary: flow cytometry, HEK293T-human CLDN6 cells; ratio to chBG87P
observationType: Emax ratio to BG87P
Keep it simple and answer with nothing but the number.

Notebook: BG87P-m7 (antibody, V domains shown, PTM removal variant of BG87P-Bz0) VH: QIQLVQSGAEVKKPGASVKVSCKASGYSFTDYHINWVRQAPGQRLEWMGWIYPGSGYTKYNEKFKGRVTLTVDTSASTAYMELSSLRSEDTAVYFCARSGIYHYVSSYYFDHWGKGTTVTVSS VL: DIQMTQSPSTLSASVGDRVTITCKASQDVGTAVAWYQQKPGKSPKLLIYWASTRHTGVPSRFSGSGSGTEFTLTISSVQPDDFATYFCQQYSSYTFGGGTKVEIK , Emax ratio to BG87P read as 0.7

Notebook: BG87P-Bz8 (antibody, V domains shown) VH: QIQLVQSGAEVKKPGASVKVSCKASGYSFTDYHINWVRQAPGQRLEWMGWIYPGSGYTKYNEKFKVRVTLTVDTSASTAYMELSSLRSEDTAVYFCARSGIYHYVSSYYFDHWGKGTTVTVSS VL: DIQMTQSPSTLSASVGDRVTITCKASQDVGTAVAWYQQKPGKSPKLLIYWASTRHTGVPSRFSGSGSGTEFTLTISSVQPDDFATYYCQQYSSYTFGGGTKVEIK , Emax ratio to BG87P read as 0.68

Notebook: BG87P-m3 (antibody, V domains shown, PTM removal variant of chBG87P with VH V65G) VH: QIQLQQSGPELVKPGASVKISCKASGYSFTDYHINWVKQRPGQGLEWIGWIYPGSGYTKYNEKFKGKATLTVDTSSSTAYMHLTSLTSEDSAVYFCARSGIYHYVSSYYFDHWGQGTTLTVSS VL: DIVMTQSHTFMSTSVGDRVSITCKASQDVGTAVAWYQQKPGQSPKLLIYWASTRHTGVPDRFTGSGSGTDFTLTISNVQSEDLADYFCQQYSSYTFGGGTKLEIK , Emax ratio to BG87P read as 1.18

All values here come from patent US20240301061A1.
